# assay system: NMT1 riboswitch aptamer
# protocol: In-line probing of NMT1 RNA constructs (TPP binding)
# assay context: both constructs (197 NMT1 and 115 NMT1); in-line probing, 23° C., 40 hours, 20 mM MgCl2; read-out: apparent dissociation constant (KD)
pKd: −log10 of the molar value.
observed property: pKd

Q: Fill blank: measured pKd of the compound Cc1ncc(C[n+]2csc(CCO[P@](=O)(O)OP(=O)(O)O)c2C)c(N)n1 [TPP, thiamine pyrophosphate] is ____.
Ans: ~9.52
